Listed here are molecules together with their documented pEC50.
# target.desc: human S1P1 receptor (Homo sapiens, UniProt P21453)
# Construct: membranes
# Sequence (P21453 whole entry): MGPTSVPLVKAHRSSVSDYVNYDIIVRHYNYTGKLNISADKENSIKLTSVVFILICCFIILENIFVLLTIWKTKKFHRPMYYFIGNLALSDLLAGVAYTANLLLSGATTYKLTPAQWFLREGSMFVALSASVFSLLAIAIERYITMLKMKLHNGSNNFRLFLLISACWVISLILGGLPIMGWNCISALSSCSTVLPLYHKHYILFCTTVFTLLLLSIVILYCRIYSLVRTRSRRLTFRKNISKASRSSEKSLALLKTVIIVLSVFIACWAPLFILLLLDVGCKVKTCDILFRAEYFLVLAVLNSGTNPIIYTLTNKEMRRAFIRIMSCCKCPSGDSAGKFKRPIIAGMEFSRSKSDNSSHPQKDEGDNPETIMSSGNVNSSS
# assay.procedure: S1P1 GTPγS Assay
# protocol.conditions: human S1P1 rat hepatoma membranes, agonist
pEC50: −log10 of the molar value. Where a name gives a salt, the structure may show the parent alone.

What measured pEC50 goes with CC(C)Oc1ccc(-c2nc(-c3cccc4c3CNC4)no2)cc1C#N [Example 1, hydrochloride] ?
> 8.00

Others:
What measured pEC50 goes with CC(C)Oc1ccc(-c2nc(-c3cccc4c3CNC4)no2)cc1Cl ?
> 8.00

----------
# target.desc: human S1P3 receptor (Homo sapiens, UniProt Q99500)
# Construct: membranes
# Sequence (Q99500 whole entry): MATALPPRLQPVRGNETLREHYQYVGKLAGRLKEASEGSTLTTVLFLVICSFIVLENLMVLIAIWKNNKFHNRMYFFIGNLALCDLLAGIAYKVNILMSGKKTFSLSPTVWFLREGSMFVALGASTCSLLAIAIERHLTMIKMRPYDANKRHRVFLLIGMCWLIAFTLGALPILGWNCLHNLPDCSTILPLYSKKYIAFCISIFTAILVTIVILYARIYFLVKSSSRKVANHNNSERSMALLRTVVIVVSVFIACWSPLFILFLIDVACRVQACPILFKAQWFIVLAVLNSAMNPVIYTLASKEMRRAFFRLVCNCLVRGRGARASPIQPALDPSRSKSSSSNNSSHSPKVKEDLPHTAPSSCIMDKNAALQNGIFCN
# assay.procedure: S1P3 GTPγS Assay
# protocol.conditions: S1P3 RBL-2H3 membranes, agonist
pEC50: −log10 of the molar value. Where a name gives a salt, the structure may show the parent alone.
Listed here are compounds together with their documented pEC50.

Field: pEC50 (human S1P3 receptor (Homo sapiens, UniProt Q99500)). Entry: CC(C)Oc1ccc(-c2nc(-c3cccc4c3CNC4)no2)cc1Cl [Example 2]
< 5.00

Field: pEC50 (human S1P3 receptor (Homo sapiens, UniProt Q99500)). Entry: CC(C)Oc1ccc(-c2nc(-c3cccc4c3CNC4)no2)cc1C#N [Example 1, hydrochloride]
< 5.00

Field: pEC50 (human S1P3 receptor (Homo sapiens, UniProt Q99500)). Entry: CC(C)Oc1ccc(-c2nc(-c3cccc4c3CN(CCCC(=O)O)C4)no2)cc1C#N [Example 5]
< 5.00
